Assay: Anticancer assay in vitro (sulforhodamine B), HaCaT
Type: cell-based
Settings: human, HaCaT keratinocytes, killing 50% of cells, read-out: LC50
Protocol: The experiments were performed in triplicate.

# compound, reported_relation, CC50 at 48 h (µg/mL)
rows = [
    ("NNC(=O)c1cc(O)c(O)c(O)c1 [Compound 3, Galloyl hydrazide]", ">", 100),
    ("CN(C)c1ccc(/C=N/NC(=O)c2cc(O)c(O)c(O)c2)cc1 [Compound 5]", "=", 55.3),
]

====

Tested on: PC-3 (prostate)
Experiment: cells
Assay type: cell-based
Conditions: Homo sapiens; PC-3, 48 h, SRB
Output yes (1) for records whose GI50 is lower than 10 µM, no (0) for records at or above 10 µM.

# compound, study_system, assigned_label
rows = [
    ("NNC(=O)c1cc(O)c(O)c(O)c1 [Compound 3, Galloyl hydrazide]", "PC-3 (prostate)", "yes (1)"),
    ("COc1ccc(/C=N/NC(=O)c2cc(O)c(O)c(O)c2)cc1", "PC-3 (prostate)", "no (0)"),
    ("O=C(N/N=C/c1ccc([N+](=O)[O-])cc1)c1cc(O)c(O)c(O)c1 [Compound 6, N'-(4-Nitrobenzylidene)galloyl hydrazide]", "PC-3 (prostate)", "no (0)"),
    ("O=C(N/N=C/c1ccccc1)c1cc(O)c(O)c(O)c1 [Compound 4, N'-(Benzylidene)galloyl hydrazide]", "PC-3 (prostate)", "yes (1)"),
    ("COc1cccc2c1C(=O)c1c(O)c3c(c(O)c1C2=O)C[C@@](O)(C(=O)CO)C[C@@H]3O[C@H]1C[C@H](N)[C@H](O)[C@H](C)O1 [Dox, Doxorubicin, reference compound]", "PC-3 (prostate)", "yes (1)"),
    ("COC(=O)c1cc(O)c(O)c(O)c1 [Compound 2, Methyl gallate]", "PC-3 (prostate)", "yes (1)"),
]
